All figures here come from patent US20180346592A1.

- system.name: GPC3 on the surface of hepatic cancer cell lines (SK-Hep1-GPC3 transfectant, HepG2, Huh7, Hep3B, SNU398) (human) (UniProt P51654)
- assay.summary: FACS, SK-Hep1-GPC3 #9 cells, 1 ug antibody; lower left panel
readout.kind: Mean, FL2-H
Would you mind answering with just the numeric figure?

Please review the entries below; each comes with its answer.
binder	reported.measurement
clone GX247 (scFv, V domains shown) VH: QVQLVQSGAEVKKPGASVKVSCKASGYTFTSYYMHWVRQAPGQGLEWMGIINPSGGSTSYAQKFQGRVTMTRDTSTSTVYMELSSLRSEDTAVYYCARTRKGSGYSYGYGMDVWGQGTTVTVSS VL: SYELTQPPSVSVSPGQTASITCSGDKLGNKYVSWYQQKPGQSPVLVIYQDNKRPSGIPERFSGSNSGNTATLTISGTQAMDEAGYYCQTWDSSVVFGGGTKLTVLG	6.07
clone GN414 (scFv, V domains shown) VH: QVQLVQSGAEVKKPGASVKVSCKASGYTFSTYGITWVRQAPGQGLEWMGRITPNNGVTDYAQKFQGRVTMTRDTSISTAYMELSSLRSDDSAVYYCAREIGSSSWKLLDPWGQGTMVTVSS VL: QAVLTQPSSVSVSPGQTASITCTGNSNNVGYEGAAWVQQYQGHPPKLLSDRNHNRPSGISERFSASRSGNTASLTITGLQSEDEADYYCSAWDSSLSEWVSGGGTKLTVLG	3.75
clone GX263 (scFv, V domains shown) VH: EVQLVESGGGLVKPGGSLRLSCAASGFTFSSYSMNWVRQAPGKGLEWVSSISSSSSYIYYADSVKGRFTISRDNAKNSLYLQMNSLRAEDTAVYYCARVTPYYYYGMDVWGQGTTVTVSS VL: QSVVTQPPSVSAAPGQKVTISCSGSSSNIGNNYVSWYQQLPGTAPKLLIYDSNKRPPGIPDRFSGSKSGTSATLGITGLQTGDEADYYCGAWDSSLSAVVFGGGTKLTVLG	3.71

# context switch: different binder, same Mean, FL2-H
Lookup: So what's the measured Mean, FL2-H for this one? clone GX184 (scFv, V domains shown) VH: QLQLQESGPGLVKPSETLSLTCAVSGGSISSSNNYWGWIRQPPGKGLEWIGSIFYSGSTYYNPSLKSRVTISVDTSKNQFSLKLSSVTAADTAVYYCARLPTGTPGFYFDYWGQGTLVTVSS VL: SYELTQPPSVSKGLRQTATLTCTGNSNNVGNQGAAWLQQHQGHPPKLLSYRNNNRPSGISERFSASRSGNTASLTITGLQPEDEADYYCSAWDSSLSAWVFGGGTKLTVLG
Found: 3.99
